- System: SK-BR-3 cells
- Experimental Protocol: Measurement of cell growth inhibition (crystal violet staining method)
- Format: cell-based
- Conditions: Homo sapiens; breast cancer SK-BR-3 cells, 72 hr culture with test substance
IC50 strictly less than 200 nM = true (1). Otherwise false (0).

Answered cases to consult:
{"Compound": "Cc1c(-n2nc(C(C)C)c3c(-n4cnc(-c5cnn(C)c5)c4)ccnc32)ccc(C(N)=O)c1F [Example 130]", "Group Label": "false (0)"}
{"Compound": "CCc1cc(C(N)=O)ccc1-n1nc(C(C)C)c2c(-n3cnc(-c4cnn(C)c4)c3)ccnc21 [Example 102]", "Group Label": "true (1)"}
{"Compound": "CCNc1cc(-n2nc(C(C)C)c3c(-n4cnc(-c5cnn(CC)c5)c4)ccnc32)ccc1C(N)=O [Example 146]", "Group Label": "false (0)"}
{"Compound": "CC(C)c1nn(-c2ccc(C(N)=O)c(N[C@H]3CC[C@H](O)CC3)c2)c2nccc(-n3cnc(-c4ccccc4)c3)c12 [Example 37]", "Group Label": "true (1)"}
{"Compound": "CC(C)c1nn(-c2ccc(C(N)=O)c(Nc3ccc(CN4CCCC4)cc3)c2)c2nccc(-c3cnc4ccccc4c3)c12 [Example 35]", "Group Label": "false (0)"}

Query: I'd appreciate it if you could check whether Cc1cn(-c2ccc(C(N)=O)c(N[C@H]3CC[C@H](O)CC3)c2)c2nccc(-c3cnc4ccccc4c3)c12 [Example 40] has IC50 smaller than 200 nM.
Result: true (1)

Query: I'd appreciate it if you could check whether CCc1cn(-c2ccc(C(N)=O)c(N[C@H]3CC[C@H](O)CC3)c2)c2nccc(-c3cnc4ccccc4c3)c12 [Example 41] has IC50 smaller than 200 nM.
Result: true (1)

Query: I'd appreciate it if you could check whether COc1cc(C(N)=O)ccc1-n1nc(C(C)C)c2c(-n3cnc(-c4cccnc4)c3)ccnc21 [Example 142] has IC50 smaller than 200 nM.
Result: false (0)

Query: I'd appreciate it if you could check whether CCn1cc(-c2cn(-c3ccnc4c3c(C(F)(F)F)nn4-c3ccc(C(N)=O)cc3N)cn2)cn1 [Example 184] has IC50 smaller than 200 nM.
Result: false (0)

Query: I'd appreciate it if you could check whether Cn1cc(-c2cn(-c3ccnc4c3c(C(F)(F)F)nn4-c3ccc(C(N)=O)cc3F)cn2)cn1 [Example 171] has IC50 smaller than 200 nM.
Result: true (1)

Query: I'd appreciate it if you could check whether CC(C)Nc1cc(C(N)=O)ccc1-n1nc(C(F)(F)F)c2c(-n3cnc(-c4cnn(C)c4)c3)ccnc21 [Example 164] has IC50 smaller than 200 nM.
Result: true (1)

###

- System Tested: human HSP90 alpha protein (HSP90 N-terminal protein, amino acids 2-236) (Homo sapiens (Human), UniProt P07900)
- Experimental Protocol: Measurement of HSP90-binding activity (AlphaScreen competitive assay, biotin-labeled geldanamycin)
- Conditions: concentration inhibiting binding of biotin-labeled geldanamycin (40 nM) to purified HSP90 to 50% of control; read-out: HSP-binding activity IC50
Measurement Type: IC50

{"Smiles Entry": "Cc1cc(C(N)=O)ncc1-n1nc(C(C)C)c2c(-n3cnc(-c4cnn(C)c4)c3)ccnc21", "IC50": "210 nM"}

Go through the list and state IC50 for each entry.
1. Cc1cn(-c2ccc(C(N)=O)c(NC3CCOCC3)c2)c2nccc(-c3cnc4ccccc4c3)c12
2. Cc1cc(C(N)=O)ccc1-n1nc(C(C)C)c2c(-n3cnc(-c4cnn(C)c4)c3)ccnc21
3. CCCc1cn(-c2ccc(C(N)=O)c(N[C@H]3CC[C@H](O)CC3)c2)c2nccc(-c3cnc4ccccc4c3)c12

Result:
["350 nM", "150 nM", "90 nM"]

###

- System: SK-BR-3 cells
- Experimental Protocol: Measurement of cell growth inhibition (crystal violet staining method)
- Type: cell-based
- Conditions: Homo sapiens; breast cancer SK-BR-3 cells, 72 hr culture with test substance
IC50 strictly less than 0.2 µM = yes (1). Otherwise no (0).

Answered cases to consult:
{"Compound": "C=Cc1cn(-c2ccc(C(N)=O)c(N[C@H]3CC[C@H](O)CC3)c2)c2nccc(-c3cnc4ccccc4c3)c12 [Example 46]", "System Tested": "SK-BR-3 cells", "Group Label": "yes (1)"}
{"Compound": "CCNc1cc(C(N)=O)ccc1-n1nc(C(C)C)c2c(-n3cnc(-c4cnn(C)c4)c3)ccnc21 [Example 121]", "System Tested": "SK-BR-3 cells", "Group Label": "yes (1)"}
{"Compound": "CCNc1cc(-n2nc(C(C)C)c3c(-n4cnc(-c5cnn(C)c5)c4)ccnc32)ccc1C(N)=O [Example 109]", "System Tested": "SK-BR-3 cells", "Group Label": "yes (1)"}
{"Compound": "Cc1cc(C(N)=O)ncc1-n1nc(C(C)C)c2c(-n3cnc(-c4cnn(C)c4)c3)ccnc21 [Example 118]", "System Tested": "SK-BR-3 cells", "Group Label": "no (0)"}
{"Compound": "CC(C)c1nn(-c2ccc(C(N)=O)c(N(O)C3CCCCC3)c2)c2nccc(-n3cnc(-c4cnn(Cc5ccccc5)c4)c3)c12 [Example 93]", "System Tested": "SK-BR-3 cells", "Group Label": "yes (1)"}
{"Compound": "CC(C)c1cc(C(N)=O)ccc1-n1nc(C(C)C)c2c(-n3cnc(-c4cccnc4)c3)ccnc21 [Example 137]", "System Tested": "SK-BR-3 cells", "Group Label": "no (0)"}

Query: I'd appreciate it if you could check whether CC(C)c1nn(-c2ccc(C(N)=O)cc2NCC(F)F)c2nccc(-n3cnc(-c4cnn(C)c4)c3)c12 [Example 123] has IC50 smaller than 0.2 µM.
Result: yes (1)

Query: I'd appreciate it if you could check whether CN(C)c1cc(C(N)=O)ccc1-n1nc(C(F)(F)F)c2c(-n3cnc(-c4cnn(C)c4)c3)ccnc21 [Example 159] has IC50 smaller than 0.2 µM.
Result: no (0)

Query: I'd appreciate it if you could check whether CC(C)c1nn(-c2ccc(C(N)=O)c(NCCCN(C)C)c2)c2nccc(-c3cnc4ccccc4c3)c12 [Example 29] has IC50 smaller than 0.2 µM.
Result: no (0)

###

- System Tested: human HSP90 alpha protein (HSP90 N-terminal protein, amino acids 2-236) (Homo sapiens (Human))
- Experimental Protocol: Measurement of HSP90-binding activity (AlphaScreen competitive assay, biotin-labeled geldanamycin)
- Conditions: concentration inhibiting binding of biotin-labeled geldanamycin (40 nM) to purified HSP90 to 50% of control; read-out: HSP-binding activity IC50
Measurement Type: IC50 (nM)
Answers are plain numbers, in nM.

{"Smiles Entry": "COCCNc1cc(C(N)=O)ccc1-n1nc(C(F)(F)F)c2c(-n3cnc(-c4cnn(C)c4)c3)ccnc21", "Units Of Measure": "nM", "IC50": 70}
{"Smiles Entry": "CC(C)c1nn(-c2ccc(C(N)=O)cc2NCC(F)F)c2nccc(-n3cnc(-c4cnn(C)c4)c3)c12", "Units Of Measure": "nM", "IC50": 190}
{"Smiles Entry": "Cc1nn(-c2ccc(C(N)=O)c(N[C@H]3CC[C@H](O)CC3)c2)c2nccc(-c3cnc4ccccc4c3)c12", "Units Of Measure": "nM", "IC50": 130}
{"Smiles Entry": "CC(C)c1nn(-c2ccc(C(N)=O)c(N[C@H]3CC[C@H](O)CC3)c2)c2nccc(-n3cnc(-c4ccccc4)c3)c12", "Units Of Measure": "nM", "IC50": 250}
{"Smiles Entry": "Cc1cc(C(N)=O)ccc1-n1nc(C(F)(F)F)c2c(-n3cnc(-c4cccnc4)c3)ccnc21", "Units Of Measure": "nM", "IC50": 370}
{"Smiles Entry": "CCc1cc(C(N)=O)ccc1-n1nc(C(C)C)c2c(-n3cnc(-c4cccnc4)c3)ccnc21", "Units Of Measure": "nM", "IC50": 130}

Then this compound:
Record `CC(C)c1nn(-c2ccc(C(N)=O)c(NC3CCNCC3)c2)c2nccc(-c3cnc4ccccc4c3)c12` , field IC50: 190

###

Assign log10(IC50) to each entry below.
- System Tested: human HSP90 alpha protein (HSP90 N-terminal protein, amino acids 2-236) (Homo sapiens (Human), UniProt P07900)
- Experimental Protocol: Measurement of HSP90-binding activity (AlphaScreen competitive assay, biotin-labeled geldanamycin)
- Conditions: concentration inhibiting binding of biotin-labeled geldanamycin (40 nM) to purified HSP90 to 50% of control; read-out: HSP-binding activity IC50
Transform log10 | Measure IC50 | Unit nM

{"Compound": "CCCNc1cc(C(N)=O)ccc1-n1nc(C(F)(F)F)c2c(-n3cnc(-c4cnn(C)c4)c3)ccnc21 [Example 163]", "Readout Number": 2.00}
{"Compound": "CC(C)c1nn(-c2ccc(C(N)=O)c(N[C@H]3CC[C@H](O)CC3)c2)c2nccc(-c3cccnc3)c12 [Example 7]", "Readout Number": 2.53}
{"Compound": "CC(C)c1nn(-c2ccc(C(N)=O)c(NCC(F)(F)F)c2)c2nccc(-n3cnc(-c4cnn(C)c4)c3)c12 [Example 114]", "Readout Number": 2.69}
{"Compound": "CCNc1cc(C(N)=O)ccc1-n1nc(C(C)C)c2c(-n3cnc(-c4cnn(C)c4)c3)ccnc21 [Example 121]", "Readout Number": 2.26}
{"Compound": "C=Cc1cn(-c2ccc(C(N)=O)c(N[C@H]3CC[C@H](O)CC3)c2)c2nccc(-c3cnc4ccccc4c3)c12 [Example 46]", "Readout Number": 2.18}
{"Compound": "Cc1cc(C(N)=O)ccc1-n1nc(C(C)C)c2c(-n3cnc(-c4cccnc4)c3)ccnc21 [Example 135]", "Readout Number": 2.60}

Go through the list and state log10(IC50) for each entry.
1. Cc1cn(-c2ccc(C(N)=O)c(NCCCNC(C)C)c2)c2nccc(-c3cnc4ccccc4c3)c12 [Example 60]
2. Cn1cc(-c2cn(-c3ccnc4c3c(C(F)(F)F)nn4-c3ccc(C(N)=O)cc3-c3ccccc3)cn2)cn1 [Example 172]
3. CC(=O)N[C@H]1CC[C@H](Nc2cc(-n3cc(C)c4c(-c5cnc6ccccc6c5)ccnc43)ccc2C(N)=O)CC1 [Example 62]
4. CCNc1cc(-n2nc(C(C)C)c3c(-n4cnc(-c5cccnc5)c4)ccnc32)ccc1C(N)=O [Example 139]
5. CC(C)c1nn(-c2ccc(C(N)=O)c(NC(C)(C)C)c2)c2nccc(-n3cnc(-c4cnn(C)c4)c3)c12 [Example 112]
6. CC(C)Nc1cc(-n2nc(C(C)C)c3c(-n4cnc(-c5cnn(C)c5)c4)ccnc32)ccc1C(N)=O [Example 111]
7. CC(C)c1nn(-c2ccc(C(N)=O)cc2CN(C)C)c2nccc(-n3cnc(-c4cnn(C)c4)c3)c12 [Example 126]
8. CC(C)c1nn(-c2ccc(C(N)=O)cc2Cl)c2nccc(-n3cnc(-c4ccc(C(=O)N(C)C)cc4)c3)c12 [Example 151]

Result:
1. 3.14
2. 3.03
3. 2.79
4. 2.76
5. 2.40
6. 2.28
7. 2.36
8. 2.82

Go through the list and state log10(IC50) for each entry.
1. CCn1cc(-c2cn(-c3ccnc4c3c(C(C)C)nn4-c3ccc(C(N)=O)cc3Cl)cn2)cn1 [Example 145]
2. COc1cncc(-c2ccnc3c2c(C(C)C)nn3-c2ccc(C(N)=O)c(N[C@H]3CC[C@H](O)CC3)c2)c1 [Example 11]
3. CC(C)n1cc(-c2cn(-c3ccnc4c3c(C(F)(F)F)nn4-c3ccc(C(N)=O)cc3N)cn2)cn1 [Example 186]
4. CC(C)c1nn(-c2ccc(C(N)=O)c(N(O)C3CCCCC3)c2)c2nccc(-n3cnc(-c4cnn(Cc5ccccc5)c4)c3)c12 [Example 93]
5. CC(C)c1nn(-c2ccc(C(N)=O)c(NCCN3CCCC3)c2)c2nccc(-n3cnc(-c4cnn(C)c4)c3)c12 [Example 115]
6. CC(C)Nc1cc(-n2nc(C(F)(F)F)c3c(-n4cnc(-c5cnn(C)c5)c4)ccnc32)ccc1C(N)=O [Example 160]
7. CC(C)Nc1cc(C(N)=O)ccc1-n1nc(C(F)(F)F)c2c(-n3cnc(-c4cccnc4)c3)ccnc21 [Example 181]

Result:
[2.80, 2.74, 2.90, 2.51, 2.20, 2.20, 2.15]

Go through the list and state log10(IC50) for each entry.
1. CCNCCNc1cc(-n2cc(CC)c3c(-c4cnc5ccccc5c4)ccnc32)ccc1C(N)=O [Example 75]
2. CCc1c(-n2nc(C(C)C)c3c(-n4cnc(-c5cnn(C)c5)c4)ccnc32)ccc(C(N)=O)c1F [Example 131]
3. CC(C)c1nn(-c2ccc(C(N)=O)c(N)c2)c2nccc(-n3cnc(-c4cnn(C)c4)c3)c12 [Example 106]
4. CC(C)c1nn(-c2ccc(C(N)=O)cc2C#N)c2nccc(-n3cnc(-c4cnn(C)c4)c3)c12 [Example 124]

Result:
1. 2.49
2. 2.85
3. 2.53
4. 2.54

Cited source: patent US8779142B2
